Target: FGFR3 (UniProt P22607)
Sequence (P22607 whole entry, looked up): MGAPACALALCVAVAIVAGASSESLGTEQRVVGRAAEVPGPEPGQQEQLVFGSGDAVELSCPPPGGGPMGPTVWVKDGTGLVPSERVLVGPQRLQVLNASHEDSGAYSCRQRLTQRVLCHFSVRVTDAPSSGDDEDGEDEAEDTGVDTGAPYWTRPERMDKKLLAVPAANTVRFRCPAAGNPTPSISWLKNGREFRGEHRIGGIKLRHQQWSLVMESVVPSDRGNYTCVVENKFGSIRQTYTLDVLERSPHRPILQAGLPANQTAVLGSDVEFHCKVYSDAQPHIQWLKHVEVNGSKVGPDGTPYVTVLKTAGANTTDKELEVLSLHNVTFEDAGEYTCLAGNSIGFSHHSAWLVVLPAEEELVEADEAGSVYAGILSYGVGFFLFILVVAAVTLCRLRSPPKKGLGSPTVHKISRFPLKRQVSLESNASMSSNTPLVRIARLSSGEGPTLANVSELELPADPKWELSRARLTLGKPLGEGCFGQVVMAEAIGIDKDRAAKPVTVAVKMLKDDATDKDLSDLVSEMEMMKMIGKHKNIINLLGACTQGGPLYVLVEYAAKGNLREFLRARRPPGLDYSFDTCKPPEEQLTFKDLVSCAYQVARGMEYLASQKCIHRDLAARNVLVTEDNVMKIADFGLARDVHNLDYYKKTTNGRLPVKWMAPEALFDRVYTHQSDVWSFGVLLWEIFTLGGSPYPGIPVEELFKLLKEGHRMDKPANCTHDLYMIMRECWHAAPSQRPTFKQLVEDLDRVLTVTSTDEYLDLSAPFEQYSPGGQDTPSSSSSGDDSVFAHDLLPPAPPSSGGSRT
Experiment: phosphorylation enrichment, bacterial display (enrichment ratio); higher = better substrate or ligand; peptides without Tyr show the background;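 further: 11-residue human phosphosite peptides and single-mutation variants displayed on the E. coli surface, counted by deep sequencing, each peptide's frequency after selection divided by its frequency in the unselected input library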;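 further: frequency after pTyr selection over input frequency; kinase dosed for 20-30% of maximal phosphorylation in three min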
Tag: YES if measured phosphorylation enrichment is not below 0.7, NO if it is.

Use the examples below as a reference point.
>>> category_label("FGFPGYQCKHF [TIMP3_Y177_S179C_YF]")
"NO"
>>> category_label("YTFNSYYMHWV [IGHV1-46_Y51_T49N]")
"YES"
>>> category_label("FFRRHYPLTTL [TNS4_Y644]")
"NO"
>>> category_label("EVASVYQSYQP [MAVS_Y92]")
"NO"
>>> category_label("ERFAFYRDSPR [FOXE3_Y108]")
"NO"

Problem: Threshold query (phosphorylation enrichment >= 0.7) on EWKQKYEESQS [MYH6_Y1462]
Result: NO

Problem: Threshold query (phosphorylation enrichment >= 0.7) on LIHLHYIRRDF [BBS4_Y43_K46R_YF]
Result: YES

Problem: Threshold query (phosphorylation enrichment >= 0.7) on KPFRVYCDMNT [FGB_Y269_YF]
Result: YES

Problem: Threshold query (phosphorylation enrichment >= 0.7) on SNYRAYATEPQ [TNNI3_Y29_H34Q]
Result: NO

Problem: Threshold query (phosphorylation enrichment >= 0.7) on ATPKGYERDAS [OTC_Y223_P225R]
Result: NO

Problem: Threshold query (phosphorylation enrichment >= 0.7) on TSSAGYRAAEG [COL6A3_Y543]
Result: NO

Problem: Threshold query (phosphorylation enrichment >= 0.7) on DLDTEYGSGYP [RNASEH2A_Y206_D205E]
Result: NO

Problem: Threshold query (phosphorylation enrichment >= 0.7) on ASMAKYYASEI [ACADSB_Y372]
Result: NO

Problem: Threshold query (phosphorylation enrichment >= 0.7) on VGQRPYQPLPE [REEP3_Y170]
Result: NO

Data origin, for the record: the supplement of paper PMC10065799
